Overview of reported recombinant UMI read abundance (log10) across a group of sequences:
- experimental_details: recombinant UMI read abundance after kanamycin selection (control-corrected) (log10(CPM+1)); higher = more efficient recombination; extreme values may be limits of the assay; sequences stand for … in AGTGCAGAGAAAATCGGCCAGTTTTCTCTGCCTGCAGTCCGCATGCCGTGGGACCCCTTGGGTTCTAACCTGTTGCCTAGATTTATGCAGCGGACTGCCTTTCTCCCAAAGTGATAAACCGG…AGGTTGGTTTCACT; site = the 11-nt donor;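 note: IS621 bridge recombinase in Escherichia coli cells against a fixed T5 target plasmid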
When you answer, write just the number.

Example sequences with recorded recombinant UMI read abundance (log10):
{"columns": ["construct_sequence", "recombinant UMI read abundance (log10)"],
 "data": [
  ["GATTATCCATGGACCGGTTTTCCCGGTAATCCGTATTTGCC (site GATTATCCTCG)", 0],
  ["ATACGGCCATGGACCGGTTTTCCCGGTAATCCGTATTTGAC (site ATATGGCCTGT)", 0],
  ["GTGGCACCATGGACCGGTTTTCCCGGTAATCCGTATTTGCA (site GGGGCACCTTG)", 0],
  ["CCCAGATCATGGACCGGTTTTCCCGGTAATCCGTATTTGTC (site CCCATATCTGA)", 0],
  ["GGAGTGGCATGGACCGGTTTTCCCGGTAATCCGTATTTGGT (site AGAGTGGCTAC)", 0.902],
  ["TCCCTTACATGGACCGGTTTTCCCGGTAATCCGTATTTGTA (site TCCCTTACTTA)", 0.0182]
]}

Dear colleague, I am looking for the recorded recombinant UMI read abundance (log10) of the following sequence: CACATGTCATGGACCGGTTTTCCCGGTAATCCGTATTTGCA (site CACATGTCTTG)
2.4

Dear colleague, I am looking for the recorded recombinant UMI read abundance (log10) of the following sequence: AATGTAACATGGACCGGTTTTCCCGGTAATCCGTATTTGCC (site AATGTAACTAG)
0

Dear colleague, I am looking for the recorded recombinant UMI read abundance (log10) of the following sequence: CAATTCCCATGGACCGGTTTTCCCGGTAATCCGTATTTGCT (site CAATTCCCTAA)
0.188
